Biological target: T1, Human active C1s (Complement Technology) (human, UniProt P09871 16-688)
T1 sequence: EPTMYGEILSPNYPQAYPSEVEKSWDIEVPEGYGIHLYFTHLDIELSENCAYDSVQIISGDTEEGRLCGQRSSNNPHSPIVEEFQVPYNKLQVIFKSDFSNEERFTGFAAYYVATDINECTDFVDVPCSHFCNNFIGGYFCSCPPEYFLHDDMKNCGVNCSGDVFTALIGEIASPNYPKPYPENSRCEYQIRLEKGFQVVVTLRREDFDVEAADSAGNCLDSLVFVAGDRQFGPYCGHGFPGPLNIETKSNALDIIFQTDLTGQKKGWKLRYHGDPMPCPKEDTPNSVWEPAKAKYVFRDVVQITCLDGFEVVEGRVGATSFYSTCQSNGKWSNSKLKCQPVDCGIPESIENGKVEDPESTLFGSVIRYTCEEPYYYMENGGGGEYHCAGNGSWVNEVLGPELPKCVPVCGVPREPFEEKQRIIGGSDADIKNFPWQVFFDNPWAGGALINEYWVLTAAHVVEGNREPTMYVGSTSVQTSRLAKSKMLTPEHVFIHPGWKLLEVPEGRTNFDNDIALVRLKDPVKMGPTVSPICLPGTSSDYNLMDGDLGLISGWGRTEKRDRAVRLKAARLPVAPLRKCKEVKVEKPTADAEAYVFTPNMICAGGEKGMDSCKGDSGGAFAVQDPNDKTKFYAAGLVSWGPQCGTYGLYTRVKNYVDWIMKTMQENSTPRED
Assay: cell-based or functional assay
outcomeMeasure: IC50, Wieslab Complement Pathway Assay (classical pathway, 1% NHS) (µg/mL)
Field format: number, assumed µg/mL, no unit text.

Exam item: For the binder shown here, aC1s_D32S IgG1-dK (antibody, V domains shown, Bivalent monospecific human IgG1) VH: QVQLVQSGAEVKKPGASVKLSCTASGFNIKDDYIHWVKQAPGQGLEWIGRIDPADGHTKYAPKFQVKVTITADTSTSTAYLELSSLRSEDTAVYYCARYGYGREVFDYWGQGTTVTVSS VL: DIVLTQSPDSLAVSLGERATISCKASQSVDYSGDSYMNWYQQKPGQPPKILIYDASNLESGIPARFSGSGSGTDFTLTISSLEPEDFAIYYCQQSNEDPWTFGGGTKVEIK , give the reported IC50, Wieslab Complement Pathway Assay (classical pathway, 1% NHS).
Marked response: 10.7
